- Study System: Rap guanine nucleotide exchange factor 3 (Homo sapiens)
- Assay Name: Counterscreen qHTS for agonist of cAMP-regulated guanine nucleotide exchange factor 3 (EPAC1) (AID 1645889); also: % of control where 0% means no effect; nearly all actives have a fitted effect of over 40% in size
- Assay Context: EPAC1 Rap1B-BODIPY-GDP exchange, fluorescence; series mostly up to 154 µM
- Text: Assay Provider (PI): Xiaodong Cheng Ph.D. The University of Texas Medical Branch, […], TX MLPCN Grant: NS066510 In multi-cellular eukaryotic organisms, the effects of cAMP are transduced by two ubiquitously-expressed intracellular cAMP receptors, the classic protein kinase A/cAMP-dependent protein kinase (PKA/cAPK) and the more recently discovered exchange protein directly activated by cAMP/cAMP-regulated guanine nucleotide exchange factor (EPAC/cAMP-GEF). […]
Results filed as inconclusive are left out. The source made the active and inactive calls. Calls follow the shape of the dose curve; as a rule, active = well fitted activation curve with a large enough effect; inconclusive = small, poorly fitted or top-dose-only effect, or another doubt; inactive = no such curve, though single readings can be large or run the other way.
Recorded Endpoint: activation

// known answers, use as guide
>>> print(df.to_string())
                                   compound                         result
0  Cc1ccc(NS(=O)(=O)c2ccc(C(=O)N3CC(C)CC(C)C3)cc2)cc1 (configuration not stated)                       inactive
1  O=S(=O)(c1cc(C(F)(F)F)ccc1Cl)N1CCN(c2ncnc3ccccc23)CC1                       inactive
2  CC1COc2ccccc2N1S(=O)(=O)c1ccc(Cl)cc1 (configuration not stated)                       inactive
3  COc1ccc(C(=O)Nc2ccc(NC(=O)c3cccs3)cc2)cc1OC                       inactive
4  COc1cc(/C=C2/C(=O)NN(c3ccc(Cl)c(Cl)c3)C2=O)cc([N+](=O)[O-])c1O                       inactive
5   COc1ccc(-c2c(-c3ccccc3OC)oc3ccccc23)cn1  7.21% [at 30.8 µM] (inactive)
6    Cc1cc(C)c(S(=O)(=O)N(C)c2ccccc2)c(C)c1                       inactive
7  C=CCn1c(SCC(=O)NC(N)=O)nnc1-c1cc2c(s1)CCC(CC)C2 (configuration not stated)                       inactive

Now for the compound whose activation we want.
Entry `Cc1ccn2cc(-c3cccc(NC(=O)c4cccs4)c3)nc2c1` ; activation = inactive

---

- Study System: Rap guanine nucleotide exchange factor 3 (Homo sapiens) (UniProt O95398)
- Sequence (O95398 whole entry, looked up): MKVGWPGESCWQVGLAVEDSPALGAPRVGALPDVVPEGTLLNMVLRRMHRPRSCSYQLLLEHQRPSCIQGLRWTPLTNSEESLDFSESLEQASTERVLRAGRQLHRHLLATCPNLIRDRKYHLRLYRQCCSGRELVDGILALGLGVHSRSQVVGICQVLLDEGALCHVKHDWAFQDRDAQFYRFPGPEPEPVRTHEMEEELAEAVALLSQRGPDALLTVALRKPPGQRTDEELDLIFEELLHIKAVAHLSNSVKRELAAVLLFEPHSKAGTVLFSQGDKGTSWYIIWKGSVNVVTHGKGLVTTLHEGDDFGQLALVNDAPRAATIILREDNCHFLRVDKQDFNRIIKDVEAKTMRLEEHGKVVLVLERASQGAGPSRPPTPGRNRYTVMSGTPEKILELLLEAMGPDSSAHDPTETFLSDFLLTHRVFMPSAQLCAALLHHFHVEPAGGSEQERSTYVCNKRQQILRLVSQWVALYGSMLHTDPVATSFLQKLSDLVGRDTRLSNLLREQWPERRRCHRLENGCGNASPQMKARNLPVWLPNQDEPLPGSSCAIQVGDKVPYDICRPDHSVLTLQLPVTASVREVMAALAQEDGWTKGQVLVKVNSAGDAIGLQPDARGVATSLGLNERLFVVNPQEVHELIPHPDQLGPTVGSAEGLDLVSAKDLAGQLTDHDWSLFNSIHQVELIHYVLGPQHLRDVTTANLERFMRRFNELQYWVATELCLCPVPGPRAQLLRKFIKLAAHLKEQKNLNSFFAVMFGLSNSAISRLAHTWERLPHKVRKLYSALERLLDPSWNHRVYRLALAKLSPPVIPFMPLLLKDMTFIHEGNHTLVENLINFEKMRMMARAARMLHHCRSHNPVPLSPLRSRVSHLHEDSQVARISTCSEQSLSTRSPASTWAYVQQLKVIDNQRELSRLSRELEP
- Assay Name: Confirmatory qHTS for agonist of cAMP-regulated guanine nucleotide exchange factor 3 (EPAC1) (AID 1645881);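 also: EPAC1 catalysed release of BODIPY-GDP from Rap1B seen as fluorescence loss; 100% = effect of cAMP agonist control; nearly all actives have a fitted effect of over 75% in size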
- Assay Context: EPAC1 Rap1B BODIPY-GDP exchange fluorescence; series mostly up to 154 µM
Results filed as inconclusive are left out. The source made the active and inactive calls. Calls follow the shape of the dose curve; as a rule, active = well fitted activation curve with a large enough effect; inconclusive = small, poorly fitted or top-dose-only effect; inactive = no such curve, though single readings can be large or run the other way.
Recorded Endpoint: outcome

>>> df
                                   molecule  recorded_endpoint    result
0  Cc1ccccc1NC(=O)CN1C(=O)N/C(=C\c2ccccc2OCc2ccc(C(=O)O)cc2)C1=O            outcome  inactive
1   O=[N+]([O-])c1cc(/C=N/O)ccc1Oc1ccccc1Cl            outcome  inactive
2  Cc1ccc(-c2cc(C(=O)Nc3ccc(S(=O)(=O)Nc4onc(C)c4C)cc3)c3ccccc3n2)cc1            outcome  inactive
3            COc1cnc(-c2ccccc2)nc1Sc1ccccc1            outcome  inactive
4  CCN(C(=O)c1noc2c1COc1ccc(C)cc1-2)c1cccc(C)c1            outcome  inactive

Record summary for `O=C(Nc1ccccc1C(=O)Nc1nnc(C(F)(F)F)s1)c1ccccc1Cl` : reported outcome = inactive

Record `O=C(Nc1nc2ccccc2c(=O)s1)c1ccc(F)cc1Cl` . Reported outcome: inactive

Quick note, outcome for `O=c1cc(CN2CCN(S(=O)(=O)c3cccc(Cl)c3)CC2)c2ccc(O)cc2o1` landed at inactive

Entry `Cc1ccc(NC(=O)CCC(=O)c2cccs2)nc1` , outcome reported as inactive

Recorded result, Clc1ccc(C(c2ccccc2)c2c[nH]c3ccccc23)s1 (stereo unspecified) , outcome: inactive

Record summary for `COc1cc(/C=C2/SC(=O)NC2=O)ccc1OCc1ccccc1` : reported outcome = inactive
